Reported Percent of untreated control values for a set of compounds
# Organism: Homo sapiens
# Test Protocol: The compound was tested for antiviral activity against HIV-1/Ba-L-infected monocyte-derived macrophages in human at a concentration of 2 mM
# Assay type: functional
Number only, in %; omit the unit.

Previously resolved entries follow.
CC(C)(C)OC(=O)N[C@@H](CCC(=O)N1C(=O)SC[C@H]1C(=O)O)C(=O)OC(C)(C)C	102
CC(=O)N1C(=O)SC[C@H]1C(=O)O	34
Cl.N[C@@H](CCC(=O)N1C(=O)SC[C@H]1C(=O)NCC(=O)O)C(=O)O	159

Which value of Percent of untreated control has been reported for "CC(C)(C)OC(=O)CNC(=O)[C@@H]1CSC(=O)N1" in the records? 104

Which value of Percent of untreated control has been reported for "CC(=O)N[C@@H](CS)C(=O)O" in the records? 88

Which value of Percent of untreated control has been reported for "CCOC(=O)[C@@H]1CSC(=O)N1C(=O)CC[C@H](N)C(=O)O.Cl" in the records? 37

Which value of Percent of untreated control has been reported for "Cl.N[C@@H](CCC(=O)N1C(=O)SC[C@H]1C(=O)O)C(=O)O" in the records? 83

Which value of Percent of untreated control has been reported for "CCOC(=O)[C@@H]1CSC(=O)N1" in the records? 86

Which value of Percent of untreated control has been reported for "O=C(O)CNC(=O)[C@@H]1CSC(=O)N1" in the records? 45

Source: ChEMBL document CHEMBL1132475
